So I've got a bunch of molecules here, and I need their log10 IC50 values.
- System: MV-4-11
- assay-explanation: Antiproliferation assay (Assay 7), MV-4-11
- Format: cell-based
- condition-summary: CellTiter-Glo, 72 hours, several values per example, read-out: Antiproli MV-4-11 [M] IC50
Values reflect log10 of reported IC50 (M).

// recorded log10 IC50 for CCc1c2c(nn1C)CN(C)S(=O)(=O)CCCn1c(C(=O)O)c(CCCOc3cccc4c3CCC4)c3ccc(F)c-2c31 (racemic) : -5.94

// recorded log10 IC50 for CCc1c2c(nn1C)CN(C)S(=O)(=O)CCCn1c(C(=O)O)c(CCCOc3cccc4ccccc34)c3ccc(F)c-2c31 (racemic) : -5.26

// recorded log10 IC50 for Cc1c2c(nn1C)CN(C)S(=O)(=O)CCCC1C(C(=O)O)=C(CCCOc3cccc4ccccc34)c3cccc-2c31 (racemic) : -4.89

// recorded log10 IC50 for CCc1c2c(nn1C)CN(CCN1CCCCC1)S(=O)(=O)CCCn1c(C(=O)O)c(CCCOc3cccc4ccccc34)c3cccc-2c31 (racemic) : -4.89

// recorded log10 IC50 for CCc1c2c(nn1C)CN(C)S(=O)(=O)CCCn1c(C(=O)O)c(CCCOc3ccc(F)c4ccccc34)c3ccc(F)c-2c31 (racemic) : -5.09

// recorded log10 IC50 for CCc1c2c(nn1C)CN(CCCN1CCOCC1)S(=O)(=O)CCCn1c(C(=O)O)c(CCCOc3cccc4ccccc34)c3cccc-2c31 (racemic) : -4.98

----------
So I've got a bunch of molecules here, and I need their kon values.
- study-target: MCL-1 (Homo sapiens (Human), UniProt Q07820, K194A/K197A/R201A)
- Sequence (Q07820 whole entry K194A/K197A/R201A, looked up): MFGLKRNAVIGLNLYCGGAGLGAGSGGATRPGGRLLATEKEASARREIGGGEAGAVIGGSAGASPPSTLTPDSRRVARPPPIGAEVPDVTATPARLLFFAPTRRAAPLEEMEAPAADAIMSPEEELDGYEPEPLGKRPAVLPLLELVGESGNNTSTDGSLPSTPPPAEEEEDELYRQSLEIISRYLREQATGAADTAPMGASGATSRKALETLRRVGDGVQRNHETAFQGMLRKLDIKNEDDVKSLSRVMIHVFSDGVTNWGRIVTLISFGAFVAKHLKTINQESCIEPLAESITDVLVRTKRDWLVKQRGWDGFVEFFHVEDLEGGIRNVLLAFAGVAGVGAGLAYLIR
- assay-explanation: Protein-compound interaction assay (SPR assay, Assay 8)
- Format: binding
- condition-summary: immobilized MBP-MCL-1, 25° C., geometric mean, read-out: kon
Express your answer in M⁻¹ s⁻¹, writing the number without its unit.

// recorded kon for Cc1c2c(nn1C)CN(C)S(=O)(=O)CCCn1c(C(=O)O)c(CCCOc3cccc4cc(F)ccc34)c3ccc(F)c-2c31 (single isomer, unassigned; enantiomer 2) : 3.4e+06

// recorded kon for Cc1c2c(nn1C)C(CCN1CCOCC1)N(C)S(=O)(=O)CCCn1c(C(=O)O)c(CCCOc3cccc4ccccc34)c3cccc-2c31 (single isomer, unassigned; enantiomer 2) : 5.6e+06

// recorded kon for Cc1c2c(nn1C)CN(C)S(=O)(=O)CCCn1c(C(=O)O)c(CCCOc3cccc4ccccc34)c3ccc(Cl)c-2c31 (single isomer, unassigned; enantiomer 1) : 3.2e+06

// recorded kon for CCc1c2c(nn1C)CN(C)S(=O)(=O)CCCn1c(C(=O)O)c(CCCOc3cccc4cc(F)ccc34)c3ccc(Cl)c-2c31 (single isomer, unassigned; enantiomer 1) : 1e+06

// recorded kon for CCc1c2c(nn1C)C(CCC1CCOCC1)N(C)S(=O)(=O)CCCn1c(C(=O)O)c(CCCOc3cccc4cc(F)ccc34)c3ccc(Cl)c-2c31 (single isomer, unassigned; enantiomer 1) : 590000

// recorded kon for CCc1c2c(nn1C)CN(C)S(=O)(=O)CCCn1c(C(=O)O)c(CCCOc3cccc4cc(F)ccc34)c3ccc(F)c-2c31 (single isomer, unassigned; enantiomer 1) : 2.2e+06

// recorded kon for Cc1c2c(nn1C)CN(C1CC1)S(=O)(=O)CCCn1c(C(=O)O)c(CCCOc3cccc4cc(F)ccc34)c3ccc(Cl)c-2c31 (single isomer, unassigned; enantiomer 1) : 2.1e+06

# credit: patent US11401278B2
